B1: ZNF511 (parent)
chain: HLYPADFRFDKPKKSRSPASAEAP

Variants of: B1
Experiment: protein stability index of a GFP-peptide fusion (GPS, HEK-293T) (PSI 1-6); higher = more stable;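 further: lentivirally expressed fusions sorted by FACS into six bins by GFP to DsRed ratio, PSI derived from sequencing read proportions per bin multiplied by bin number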
Conditions: c terminus: a fixed tail appended
Kind request: treat 3 as inclusive, so protein stability index at 3 or higher is Satisfied, anything lower is Not satisfied.

• H1D = Satisfied
• F9Y = Satisfied
• L2T = Satisfied
• P4L = Satisfied
• P12L = Satisfied
• P24E = Not satisfied
• S20N = Satisfied
• R8P = Satisfied
• A5G = Not satisfied
• S15E = Satisfied
• A5N = Not satisfied
• A23I = Not satisfied
• S20F = Not satisfied
• S15N = Not satisfied
• A19V = Not satisfied
• S17Y = Not satisfied
• S15W = Not satisfied
• S20L = Not satisfied
• D6L = Not satisfied
• A19R = Not satisfied
• E22N = Not satisfied
• E22H = Not satisfied
• L2R = Satisfied
• Y3L = Satisfied
• Y3W = Satisfied
• K14W = Not satisfied
• E22Q = Not satisfied
• A23S = Not satisfied
• P24S = Satisfied
• S17P = Not satisfied
• H1A = Satisfied
• S15R = Not satisfied
• D6E = Not satisfied
• S20E = Not satisfied
• A23V = Not satisfied
• E22S = Not satisfied
• P4G = Satisfied
• P24C = Not satisfied
• S15C = Not satisfied
• A23P = Satisfied
• S20I = Not satisfied
